System: HeLa
Assay: Cytotoxicity against human HeLa cells
Format: functional
Each item that follows carries a reported CC50.

smilesNotation: COc1c2c(c(OC)c3ccccc13)O[C@H](C(C)(C)O)C2
targetOrSystem: HeLa
CC50: > 10 µg/mL
--
smilesNotation: COc1c2c(c(OC)c3ccccc13)[C@H](O)[C@@H](C(C)(C)O)O2
targetOrSystem: HeLa
CC50: > 10 µg/mL
--
smilesNotation: COC(=O)c1ccccc1/C(OC)=C1/C[C@@H](C(C)(C)O)OC1=O
targetOrSystem: HeLa
CC50: > 10 µg/mL

###

Test system: L929
Assay: Antiproliferative activity against mouse L929 cells
Format: functional
Each item that follows carries a reported GI50.

compound: COc1c2c(c(OC)c3ccccc13)O[C@H](C(C)(C)O)C2 [AVICENOL C]
GI50: > 10 µg/mL
//
compound: COc1c2c(c(OC)c3ccccc13)[C@H](O)[C@@H](C(C)(C)O)O2 [AVICENOL A]
GI50: > 10 µg/mL
//
compound: COC(=O)c1ccccc1/C(OC)=C1/C[C@@H](C(C)(C)O)OC1=O [AVICENNONE A]
GI50: > 10 µg/mL

Source: ChEMBL document CHEMBL1143691
